Documented drug sensitivity score across a set of compounds
Tested on: Bowes
assayComment: drug sensitivity score (DSS) (DSS (unitless, 0-50 scale)); higher = more sensitive (stronger viability inhibition); extreme values may be limits of the assay
experimentalConditions: 72 h; culture: 2D
valueKind: drug sensitivity score

O=C(/C=C\n1cnc(-c2cc(C(F)(F)F)cc(C(F)(F)F)c2)n1)NNc1ccccn1 [Verdinexor] : 4.1
COc1ccc(S(=O)(=O)Nc2cccnc2Nc2ccc(O)cc2)cc1 [ABT-751] : 11
CC(C)C(=O)Nc1ccc([N+](=O)[O-])c(C(F)(F)F)c1 [Flutamide] : 0.1
NS(=O)(=O)NCCNc1nonc1/C(=N/O)Nc1ccc(F)c(Br)c1 [Epacadostat] : 0
CNc1ncc2cc(-c3cc(NC(=O)NCCC(C)(C)C)c(F)cc3C)c(C)nc2n1 : 7.4
Cc1nc(-c2cn3c(n2)-c2ccc(-c4cnn(C(C)(C)C(N)=O)c4)cc2OCC3)n(C(C)C)n1 [Taselisib] : 2.8
COC[C@H](NC(=O)c1cnc(C)s1)C(=O)N[C@@H](COC)C(=O)N[C@@H](Cc1ccccc1)C(=O)[C@@]1(C)CO1 [Oprozomib] : 20.3
Cc1ccc(C(=O)Nc2cccc(C(F)(F)F)c2)cc1Nc1nc(-c2cccnc2)nc2c1cnn2C [NVP-BHG712] : 0

---

System: Bowes
assayComment: drug sensitivity score (DSS) (DSS (unitless, 0-50 scale)); higher = more sensitive (stronger viability inhibition); extreme values may be limits of the assay
experimentalConditions: 72 h; culture: 2D
valueKind: drug sensitivity score

C#Cc1cccc(Nc2ncnc3cc(OCCOC)c(OCCOC)cc23)c1 : 1.8
Cc1cc(Nc2ncc(Cl)c(Nc3ccccc3S(=O)(=O)C(C)C)n2)c(OC(C)C)cc1C1CCNCC1 : 0.3
COc1cc(C(=O)O)ccc1NC(=O)[C@@H]1N[C@@H](CC(C)(C)C)[C@](C#N)(c2ccc(Cl)cc2F)[C@H]1c1cccc(Cl)c1F : 3.4
O=C(O)c1ccc2c(c1)nc(Nc1cccc(Cl)c1)c1ccncc12 : 3.3
O=C1CN2Cc3c(ccc(Cl)c3Cl)N=C2N1 [Anagrelide] : 9.6
CC1=C(/C=C/C(C)=C/C=C/C(C)=C/C(=O)O)C(C)(C)CCC1 : 5.7
Nc1cccc2c1C(=O)N(C1CCC(=O)NC1=O)C2=O (stereo unspecified) [Pomalidomide] : 0
CCCCC(=O)OCC(=O)[C@]1(O)Cc2c(O)c3c(c(O)c2[C@@H](O[C@H]2C[C@H](NC(=O)C(F)(F)F)[C@H](O)[C@H](C)O2)C1)C(=O)c1c(OC)cccc1C3=O : 6.4
CN1CCN(CCOc2cc(OC3CCOCC3)c3c(Nc4c(Cl)ccc5c4OCO5)ncnc3c2)CC1 : 0.3
CN1CCc2c(c3ccccc3n2Cc2ccc(C(=O)NO)cc2)C1 : 2
COc1cc(Nc2c(C#N)cnc3cc(OCCCN4CCN(C)CC4)c(OC)cc23)c(Cl)cc1Cl : 8.2
CC(=O)N(O)CCCCCNC(=O)CCC(=O)N(O)CCCCCNC(=O)CCC(=O)N(O)CCCCCN : 2.9
COC(=O)c1ccc2c(c1)NC(=O)/C2=C(\Nc1ccc(N(C)C(=O)CN2CCN(C)CC2)cc1)c1ccccc1 : 6.5
O=C(O)C(=O)O.[NH-][C@@H]1CCCC[C@H]1[NH-].[Pt+2] : 5.8
COc1cc(N2CCC(N3CCN(C)CC3)CC2)ccc1Nc1ncnc(Nc2ccccc2S(=O)(=O)C(C)C)n1 : 4.8
COc1cc(C)[nH]c(=O)c1CNC(=O)c1c(C)n([C@H](C)C2CCOCC2)c2ccccc12 : 0
COc1cc2c(cc1OC(C)C)[C@H](c1ccc(Cl)cc1)N(c1ccc(N(C)C[C@H]3CC[C@H](N4CCN(C)C(=O)C4)CC3)cc1)C(=O)C2 : 5.1
O=C(Nc1cnn2ccc(N3CCC[C@@H]3c3cc(F)ccc3F)nc12)N1CC[C@H](O)C1 : 0
O=C(Nc1cccc(Nc2ncc(Br)c(NCCc3cnc[nH]3)n2)c1)N1CCCC1 : 5.6
CC(=O)O[C@H]1C(=O)[C@@]2(C)[C@H]([C@H](OC(=O)c3ccccc3)[C@]3(O)C[C@H](OC(=O)[C@H](O)[C@@H](NC(=O)c4ccccc4)c4ccccc4)C(C)=C1C3(C)C)[C@]1(OC(C)=O)CO[C@@H]1C[C@@H]2O : 23.3
CCC(C)(C)C(=O)O[C@H]1C[C@@H](C)C=C2C=C[C@H](C)[C@H](CC[C@@H]3C[C@@H](O)CC(=O)O3)[C@H]21 : 2.8

---

Tested on: Bowes
assayComment: drug sensitivity score (DSS) (DSS (unitless, 0-50 scale)); higher = more sensitive (stronger viability inhibition); extreme values may be limits of the assay
experimentalConditions: 72 h; culture: 2D
# binarize drug sensitivity score: threshold 0.5 inclusive, high side 1, low side -1

Cc1nc(Nc2n[nH]c3c2CN(C(=O)N[C@H](CN(C)C)c2ccccc2)C3(C)C)c2sccc2n1 : 1
COc1cc(OC)c(/C=C/S(=O)(=O)Cc2ccc(OC)c(NCC(=O)O)c2)c(OC)c1 : 1
CCNc1nc(Nc2cc(F)c(C(=O)N3CCOCC3)cc2OC)ncc1C(F)(F)F : -1
O=c1ncn2nc(Sc3ccc(F)cc3F)ccc2c1-c1c(Cl)cccc1Cl : 1
C=C1C[C@@H]2[C@H](CC[C@]3(C)C(=O)CC[C@@H]23)[C@@]2(C)C=CC(=O)C=C12 : 1
Nc1nc(OCc2cc(Br)cs2)c2[nH]cnc2n1 : -1
Cc1cc(Nc2nc(N[C@@H](C)c3ncc(F)cn3)ncc2Cl)[nH]n1 : -1
Cc1ccc(NC(=O)c2ccc(CN3CCN(C)CC3)cc2)cc1Nc1nc(-c2cccnc2)cs1 : 1
CC[C@@H](C(=O)[C@@H](C)[C@@H](O)[C@H](C)[C@@H]1O[C@@H]([C@@H](CC)C(=O)O)CC[C@@H]1C)[C@H]1O[C@]2(C=C[C@@H](O)[C@]3(CC[C@@](C)([C@H]4CC[C@](O)(CC)[C@H](C)O4)O3)O2)[C@H](C)C[C@@H]1C : 1
CCCOc1ccn2c(C(C)=O)cc(-c3ccccc3S(C)(=O)=O)c2c1 : 1
CC(C)C[C@@H](C(=O)N[C@H](C(=O)OC1CCCC1)c1ccccc1)[C@H](O)C(=O)NO : 1
Cc1ncc(-c2ccnc(Nc3ccc(S(C)(=O)=O)cc3)n2)n1C(C)C : 1
CCCC(CCC)C(=O)O : -1
CC(C)(O)CC(=O)NCCn1ccc2ncnc(Nc3ccc(Oc4cccc(C(F)(F)F)c4)c(Cl)c3)c21 : 1
CNC(=O)c1nn(C)c2c1C(C)(C)Cc1cnc(Nc3ccc(N4CCN(C)CC4)cc3)nc1-2 : 1
C[C@@H]1C=C2C(=O)O[C@@H]3CC[C@H](C1)[C@]23O : 1
O=C(c1ccc(OCCN2CCCCC2)cc1)c1c(-c2ccc(O)cc2)sc2cc(O)ccc12 : -1
CCOc1cc2ncc(C#N)c(Nc3ccc(OCc4ccccn4)c(Cl)c3)c2cc1NC(=O)/C=C/CN(C)C : 1
C[C@H](Nc1ncnc2[nH]cnc12)c1cc2ccc(F)cc2nc1-c1ccccn1 : -1
CCCCCCCCCCCCCCCCOP(=O)([O-])OCC[N+](C)(C)C : 1
CS(=O)(=O)c1ccc(C(=O)Nc2ccc(Cl)c(-c3ccccn3)c2)c(Cl)c1 : -1
CC[C@H](CC#N)OC(=O)N[C@@H](C)c1cccc(NC(=O)Nc2ccc(-c3cnco3)c(OC)c2)c1 : 1

---

System: Bowes
assayComment: drug sensitivity score (DSS) (DSS (unitless, 0-50 scale)); higher = more sensitive (stronger viability inhibition); extreme values may be limits of the assay
experimentalConditions: 72 h; culture: 2D
valueKind: drug sensitivity score

COc1cc2c(Nc3ccc(Cl)c(Cl)c3F)ncnc2cc1OC[C@@H]1C[C@@H]2CN(C)C[C@@H]2C1 : 1.8
CN(c1ncccc1CNc1nc(Nc2ccc3c(c2)CC(=O)N3)ncc1C(F)(F)F)S(C)(=O)=O : 6.4
CCN1CCN(Cc2ccc(Nc3ncc(F)c(-c4cc(F)c5nc(C)n(C(C)C)c5c4)n3)nc2)CC1 : 9.6
Cc1cc(Nc2cc(N3CCN(C)CC3)nc(Sc3ccc(NC(=O)C4CC4)cc3)n2)n[nH]1 : 11.7
O=C(O)CNC(=O)c1c(O)c2ccccc2n(Cc2ccccc2)c1=O : 0
CC(C)NC[C@@H](C(=O)N1CCN(c2ncnc3c2[C@H](C)C[C@H]3O)CC1)c1ccc(Cl)cc1 : 0
CCC/C=C/C=C/C(=O)O[C@H]1/C(=C/C(=O)OC)C[C@H]2C[C@H]([C@@H](C)O)OC(=O)C[C@H](O)C[C@@H]3C[C@H](OC(C)=O)C(C)(C)[C@](O)(C[C@@H]4C/C(=C/C(=O)OC)C[C@H](/C=C/C(C)(C)[C@]1(O)O2)O4)O3 : 1.7
CN1C(=O)N[C@H](Cc2c[nH]c3c(Cl)cccc23)C1=O : 0
Clc1ccc(C(c2ccccc2Cl)C(Cl)Cl)cc1 (stereo not drawn) : 1
CC1(C)CCC(c2ccc(Cl)cc2)=C(CN2CCN(c3ccc(C(=O)NS(=O)(=O)c4ccc(N[C@H](CCN5CCOCC5)CSc5ccccc5)c(S(=O)(=O)C(F)(F)F)c4)cc3)CC2)C1 : 0
COc1cc2c(cc1-c1c(C)noc1C)ncc1[nH]c(=O)n([C@H](C)c3ccccn3)c12 : 4.6
N.N.[Cl][Pt][Cl] [Cisplatin] : 5.6
C=CCc1cccc(/C=N/NC(=O)CN2CCN(Cc3ccccc3)CC2)c1O : 1.6
Oc1ccc2c(c1)CC[C@H](c1ccccc1)[C@@H]2c1ccc(OCCN2CCCC2)cc1 : 0
CCc1cnn2c(NCc3ccc[n+]([O-])c3)cc(N3CCCC[C@H]3CCO)nc12 : 30.7
COc1c(C)cnc(Cn2cnc3c(Cl)nc(N)nc32)c1C : 13.2
O=C(NCc1ccncc1)C12CC3CC(C1)CC(c1ccc(Cl)cc1)(C3)C2 : 5.2
CCc1cc2c(cc1N1CCC(N3CCOCC3)CC1)C(C)(C)c1[nH]c3cc(C#N)ccc3c1C2=O : 0
CNC(=O)c1cccc2cc(Oc3ccnc4cc(OCC5(N)CC5)c(OC)cc34)ccc12 : 5.4
COc1cccc2c1C(=O)c1c(O)c3c(c(O)c1C2=O)C[C@@](O)(C(=O)CO)C[C@@H]3O[C@H]1C[C@H](N)[C@H](O)[C@H](C)O1 : 4.2
CC(C)C[C@H](NC(=O)[C@H](CCc1ccccc1)NC(=O)CN1CCOCC1)C(=O)N[C@@H](Cc1ccccc1)C(=O)N[C@@H](CC(C)C)C(=O)[C@@]1(C)CO1 : 31.7
COc1ncc(-c2ccc3nccc(-c4ccnnc4)c3c2)cc1NS(=O)(=O)c1ccc(F)cc1F : 16.9
Cc1ncc(Cl)cc1NCc1ccc(C(=O)N[C@@H](CC2CCCC2)C(=O)NC2CC2)s1 : 0
